molecular target: GALR3 mutant L^184M,V^186I,A^187C (Homo sapiens, UniProt O60755, A187C/L184M/V186I); construct: expressed in transfected cells; host or cells: HEK293 cells stably expressing Gqi; assay: SRE-luc luciferase assay, GALR3 L184M,V186I,A187C; format: cell-based; conditions: GALR3 L^184M,V^186I,A^187C; SRE-luc in HEK293 Gqi cells, ligand 6 h; mean ± S.E.; SEM
Ends that are not written are not given here.
readout: EC50 (nM)
Answers are plain numbers, in nM.

Query string: Consider the substance NWTPQAMLYLKGPQ-NH2 [P^13-SPX] and give its recorded EC50.
Result string: 457

* * *

molecular target: GALR3 mutant L^184M,V^186I,A^187C, A^190V,G^192S (Homo sapiens, UniProt O60755, A187C/A190V/G192S/L184M/V186I); construct: expressed in transfected cells; host or cells: HEK293 cells stably expressing Gqi; test: SRE-luc luciferase assay, GALR3 pentuple mutant (G192S); format: cell-based; settings: GALR3 L^184M,V^186I,A^187C, SRE-luc in HEK293 Gqi cells, ligand 6 h, mean ± S.E., SEM
Ends that are not written are not given here.
readout: EC50 (nM)
Answers are plain numbers, in nM.

Query string: Consider the substance NWTPQAMLYLKGPQ-NH2 [P^13-SPX] and give its recorded EC50.
Result string: 145

* * *

Answer each item with its documented EC50.
Biological target: GALR3 double mutant L^100F, Y^107H (Homo sapiens, UniProt O60755, L100F/Y107H)
Construct: expressed in transfected cells; host or cells: HEK293 cells stably expressing Gqi
Sequence (O60755 1-368 L100F/Y107H): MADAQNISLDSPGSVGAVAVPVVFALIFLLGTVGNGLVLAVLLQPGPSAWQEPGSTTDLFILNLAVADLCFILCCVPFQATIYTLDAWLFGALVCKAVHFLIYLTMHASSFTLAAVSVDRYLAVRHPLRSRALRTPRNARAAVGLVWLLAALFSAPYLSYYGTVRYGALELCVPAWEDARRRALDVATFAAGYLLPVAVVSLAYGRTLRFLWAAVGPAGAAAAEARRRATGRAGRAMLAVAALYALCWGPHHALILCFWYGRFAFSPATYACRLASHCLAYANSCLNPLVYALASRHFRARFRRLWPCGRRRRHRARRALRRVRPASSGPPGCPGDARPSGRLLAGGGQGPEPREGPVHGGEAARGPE
Assay: SRE-luc luciferase assay, GALR3 L100F,Y107H
Type: cell-based
Settings: GALR3 L^100F, SRE-luc in HEK293 Gqi cells, ligand 6 h, mean ± S.E., SEM
Ends that are not written are not given here.
Numbers only, in µM.

NWTPNAMLYLKGAQ-NH2 [N^5-SPX] : 0.155

In the following, a different substance is considered.
Query string: Consider the substance NWTPQAALYLKGAQ-NH2 [A^7-SPX] and give its recorded EC50.
Result string: 0.0692

* * *

biological target: GALR3 single mutant L^100F (Homo sapiens, UniProt O60755, L100F); construct: expressed in transfected cells; host or cells: HEK293 cells stably expressing Gqi; experiment: SRE-luc luciferase assay, GALR3 L100F; assay type: cell-based; conditions: GALR3 L^100F; SRE-luc in HEK293 Gqi cells, ligand 6 h; mean ± S.E.; SEM
Ends that are not written are not given here.
Answer each item with its documented pEC50.
Numbers only, as −log10 of the molar value.

NWTPQAALYLKGAQ-NH2 [A^7-SPX] : 6.57

In the following, a different substance is considered.
Query string: Fill in: pEC50 on GALR3 single mutant L^100F (Homo sapiens, UniProt O60755, L100F), entry NWTPNAMLYLKGAQ-NH2 [N^5-SPX]
Result string: 6.54

* * *

biological target: GALR3 single mutant S^266T (Homo sapiens, UniProt O60755, S266T); construct: expressed in transfected cells; host or cells: HEK293 cells stably expressing Gqi; assay: SRE-luc luciferase assay, GALR3 S266T; format: cell-based; details: GALR3 S^266T; SRE-luc in HEK293 Gqi cells, ligand 6 h; mean ± S.E.; SEM
Ends that are not written are not given here.
readout: EC50 (nM)
One number for each entry, in nM.

Query string: Consider the substance NWTPQAMLYLFGAQ-NH2 [F^11-SPX] and give its recorded EC50.
Result string: 200

* * *

target: GALR3 mutant L^184M,V^186I,A^187C, A^190V,A^191F,G^192S (Homo sapiens, UniProt O60755, A187C/A190V/A191F/G192S/L184M/V186I); construct: expressed in transfected cells; host or cells: HEK293 cells stably expressing Gqi; experiment: SRE-luc luciferase assay, GALR3 hextuple mutant; type: cell-based; details: GALR3 L^184M,V^186I,A^187C, SRE-luc in HEK293 Gqi cells, ligand 6 h, mean ± S.E., SEM
Ends that are not written are not given here.
readout: EC50
I'd appreciate it if you wrote the number followed by its unit.

Query string: Consider the substance NWTPQAMLYLKGPQ-NH2 [P^13-SPX] and give its recorded EC50.
Result string: 112 nM

* * *

Target: GALR3 single mutant L^184M (Homo sapiens, UniProt O60755, L184M)
Construct: expressed in transfected cells; host or cells: HEK293 cells stably expressing Gqi
Assay: SRE-luc luciferase assay, GALR3 L184M
Type: cell-based
Conditions: GALR3 L^184M; SRE-luc in HEK293 Gqi cells, ligand 6 h; mean ± S.E.; SEM
From the text: For domain swapping between GALR2 and GALR3, individual cDNA fragments of interest were amplified by polymerase chain reaction (PCR) with Pfu polymerase (ELPIS Biotech, Daejeon, Korea) and two specific primers, one corresponding to the 5' or 3' end of the GALR2 or GALR3 cDNA and the other to the region of overlap between the two receptors. The two resulting fragments, one from GALR2 and the other from GALR3, were subjected to a second round of PCR to generate the chimeric cDNAs. […]
Ends that are not written are not given here.
readout: EC50 (nM)
One number for each entry, in nM.

Query string: Fill in: EC50 on GALR3 single mutant L^184M (Homo sapiens, UniProt O60755, L184M), entry NWTPQAMLYLKGPQ-NH2 [P^13-SPX]
Result string: 437

* * *

Biological target: GALR3 single mutant V^186I (Homo sapiens, UniProt O60755, V186I)
Construct: expressed in transfected cells; host or cells: HEK293 cells stably expressing Gqi
Assay: SRE-luc luciferase assay, GALR3 V186I
Assay type: cell-based
Settings: GALR3 V^186I; SRE-luc in HEK293 Gqi cells, ligand 6 h; mean ± S.E.; SEM
Source text: For domain swapping between GALR2 and GALR3, individual cDNA fragments of interest were amplified by polymerase chain reaction (PCR) with Pfu polymerase (ELPIS Biotech, Daejeon, Korea) and two specific primers, one corresponding to the 5' or 3' end of the GALR2 or GALR3 cDNA and the other to the region of overlap between the two receptors. The two resulting fragments, one from GALR2 and the other from GALR3, were subjected to a second round of PCR to generate the chimeric cDNAs. […]
Ends that are not written are not given here.
readout: EC50 (nM)
Numbers only, in nM.

Query string: Consider the substance NWTPQAMLYLKGPQ-NH2 [P^13-SPX] and give its recorded EC50.
Result string: 513

* * *

Target: GALR3 triple mutant L^100F, Y^103F, Y^107H (Homo sapiens, UniProt O60755, L100F/Y103F/Y107H)
Construct: expressed in transfected cells; host or cells: HEK293 cells stably expressing Gqi
Experiment: SRE-luc luciferase assay, GALR3 L100F,Y103F,Y107H
Assay type: cell-based
Conditions: GALR3 L^100F, SRE-luc in HEK293 Gqi cells, ligand 6 h, mean ± S.E., SEM
Source text: For domain swapping between GALR2 and GALR3, individual cDNA fragments of interest were amplified by polymerase chain reaction (PCR) with Pfu polymerase (ELPIS Biotech, Daejeon, Korea) and two specific primers, one corresponding to the 5' or 3' end of the GALR2 or GALR3 cDNA and the other to the region of overlap between the two receptors. The two resulting fragments, one from GALR2 and the other from GALR3, were subjected to a second round of PCR to generate the chimeric cDNAs. […]
Ends that are not written are not given here.
Answer each item with its documented pEC50.
Give bare numbers, as −log10 of the molar value.

NWTPNAMLYLKGAQ-NH2 [N^5-SPX] : 7.08

In the following, a different substance is considered.
Query string: Consider the substance NWTPQAALYLKGAQ-NH2 [A^7-SPX] and give its recorded pEC50.
Result string: 7.19

* * *

target: GALR3 mutant L^184M,V^186I,A^187C, A^190V,A^191F (Homo sapiens, UniProt O60755, A187C/A190V/A191F/L184M/V186I); construct: expressed in transfected cells; host or cells: HEK293 cells stably expressing Gqi; test: SRE-luc luciferase assay, GALR3 pentuple mutant (A191F); assay type: cell-based; settings: GALR3 L^184M,V^186I,A^187C, SRE-luc in HEK293 Gqi cells, ligand 6 h, mean ± S.E., SEM
Ends that are not written are not given here.
readout: pEC50
Answers are plain numbers, as −log10 of the molar value.

Query string: Consider the substance NWTPQAMLYLKGPQ-NH2 [P^13-SPX] and give its recorded pEC50.
Result string: 6.85
